B1: ZNF449 (parent)
chain: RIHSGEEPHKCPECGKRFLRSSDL

variants of: B1; assay: protein stability index of a GFP-peptide fusion (GPS, HEK-293T) (PSI 1-6); higher = more stable; settings: c terminus: a fixed tail appended;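 also: lentivirally expressed fusions sorted by FACS into six bins by GFP to DsRed ratio, PSI derived from sequencing read proportions per bin multiplied by bin number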
Please use yes whenever protein stability index is not below 3, and no whenever it is.

Record C14M ; criterion: protein stability index no lower than 3. Met?
yes

Follow-up item: L19N
yes

How about H3P ?
yes

Another: G15L
yes

Same question, E6S this time
no

Note, next up: E6K
no

Query R17T next
yes

// same read-out, input: C11H
yes

Ok, now R17C
yes

Next entry: L24D
yes

Further cases:
Can G15T be said to have protein stability index at or above 3?
yes

Same thing, different variant: L24V
yes
